Reported values of Kd for individual entries
Target: NANPNVDP (Plasmodium falciparum)
Assay: BLI, target on sensor

BINDER	VALUE_UNITS	Kd
AB-007037 (antibody, V domains shown) VH: QMQLVESGGGVVQPGRSLRLSCTASGFTFSTYAMHWVRQSPGQGLQWVAVISYHSTNKYYEDSVKGRFTISRDNSKNTLYLQMNSLRAEDTAVYYCARDGYSSSFFDFWGQGTLVTVSS VL: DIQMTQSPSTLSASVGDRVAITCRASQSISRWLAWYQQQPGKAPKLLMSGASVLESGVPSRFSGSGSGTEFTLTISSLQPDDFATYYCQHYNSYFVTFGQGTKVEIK	nM	8.41
AB-007072 (antibody, V domains shown) VH: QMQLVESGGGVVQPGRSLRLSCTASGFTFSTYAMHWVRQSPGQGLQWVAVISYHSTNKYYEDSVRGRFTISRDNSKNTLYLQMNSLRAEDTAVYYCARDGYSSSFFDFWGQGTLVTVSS VL: DIQMTQSPSTLSASVGDRVAITCRASQSISRWLAWYQQQPGKAPKLLMSGASNLESGVPSRFSGSGSGTEFTLTISSLQPDDFATYYCQHYNSYFVTFGQGTKVEIK	nM	16.9
AB-007036 (antibody, V domains shown) VH: QMQLVESGGGVVQPGRSLRLSCTASGFTFSTYAMHWVRQSPGQGLQWVAVISYDSTNKYYEDSVRGRFTISRDNSKNTLYLQMNSLRAEDTAVYYCARDGYSSSFFDFWGQGTLVTVSS VL: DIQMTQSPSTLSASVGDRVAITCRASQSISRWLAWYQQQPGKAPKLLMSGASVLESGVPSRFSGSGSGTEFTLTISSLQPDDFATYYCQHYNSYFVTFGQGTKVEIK	nM	29.6
AB-007054 (antibody, V domains shown) VH: QMQLVESGGGVVQPGRSLRLSCTASGFTFSTYAMHWVRQSPGQGLQWVAVISYHSTNKYYEDSVRGRFTISRDNSKNTLYLQMNSLRAEDTAVYYCARDGYASSFFDFWGQGTLVTVSS VL: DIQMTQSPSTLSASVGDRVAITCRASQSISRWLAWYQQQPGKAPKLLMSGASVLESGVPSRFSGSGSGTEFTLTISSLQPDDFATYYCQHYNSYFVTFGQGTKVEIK	nM	13.7

All values here come from patent US20220195023A1.
